target: Carbonic anhydrase 12 (Homo sapiens, UniProt O43570); assay: Inhibition of human recombinant CA12 catalytic domain expressed in Sf9 cells by stopped flow CO2 hydration assay
Sequence (O43570 whole entry, the tested form may be a part): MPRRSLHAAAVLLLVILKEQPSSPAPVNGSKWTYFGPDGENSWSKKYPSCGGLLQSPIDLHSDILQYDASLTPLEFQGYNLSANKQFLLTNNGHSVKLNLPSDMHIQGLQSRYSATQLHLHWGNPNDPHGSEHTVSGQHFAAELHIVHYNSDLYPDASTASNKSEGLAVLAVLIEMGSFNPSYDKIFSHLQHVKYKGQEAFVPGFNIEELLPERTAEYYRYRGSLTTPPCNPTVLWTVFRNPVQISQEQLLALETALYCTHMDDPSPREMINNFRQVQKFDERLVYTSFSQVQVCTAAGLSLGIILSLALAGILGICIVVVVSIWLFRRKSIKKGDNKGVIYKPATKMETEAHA
pKi: −log10 of the molar value.
ENDPOINT_NAME: pKi

NS(=O)(=O)c1cccc(/N=N/c2ccc(O)cc2)c1 ... 8.14

A. CN(C)c1ccc(/N=N/c2ccc(S(N)(=O)=O)cc2)cc1
B. CNc1ccc(/N=N/c2ccc(S(N)(=O)=O)cc2)cc1
C. NS(=O)(=O)c1ccc(/N=N/c2ccc(O)cc2)cc1
Request: Hey, quick one: sort these by pKi, low to high? Output the labels ranked as instructed.
Response: B, A, C
(B: 7.16, A: 8.10, C: 8.30)
